- System: collagen-induced platelet aggregation (platelet rich, citrated, human blood plasma)
- Assay Overview: Inhibition of collagen-induced aggregation of platelets in platelet rich, citrated human blood plasma
- Format: cell-based
- Condition Info: COLLAGEN (2 μg/ml), read-out: ID50 (the source's name)
# maps each entry to its IC50
Parameter: IC50 (µM)

INSERT INTO measurements (molecule, measured_target, obs_value) VALUES
  ('C=CCSS/C=C/C[S+]([O-])CC=C (centres unmarked) [(E)-ajoene]', 'collagen-induced platelet aggregation (platelet rich, citrated, human blood plasma)', 243),
  ('C=CCSS/C=C\C[S+]([O-])CC=C (centres unmarked) [(Z)-ajoene]', 'collagen-induced platelet aggregation (platelet rich, citrated, human blood plasma)', 196);

---

- Test system: collagen-induced platelet aggregation (platelet rich, citrated, human blood plasma)
- Assay Overview: Inhibition of collagen-induced aggregation of platelets in platelet rich, citrated human blood plasma
- Format: cell-based
- Condition Info: COLLAGEN (1 μg/ml), (E,Z)-ajoene 70:30 together with Indomethacin (aliquot 7), read-out: ID50 (the source's name)
- From the text: Though the compounds of this invention have multiple uses such as for example as bacteriocides and fungicides, a particularly important utility is as an antithrombotic agent. Various chemicals are known to cause blood platelets to aggregate which in turn can result in blood clots in the blood circulatory system of living systems. […]
pIC50: −log10 of the molar value.
Parameter: pIC50

INSERT INTO measurements (molecule, obs_value) VALUES
  ('C=CCSSC=CC[S+]([O-])CC=C (stereo not shown) [(E,Z)-ajoene]', 5.35);

---

- System: collagen-induced platelet aggregation (platelet rich, citrated, human blood plasma)
- Assay Overview: Inhibition of collagen-induced aggregation of platelets in platelet rich, citrated human blood plasma
- Type: cell-based
- Condition Info: COLLAGEN (1 μg/ml), (E,Z)-ajoene 70:30 together with Prostacyclin (aliquot 5), read-out: ID50 (the source's name)
pIC50: −log10 of the molar value.
Parameter: pIC50

INSERT INTO measurements (molecule, obs_value) VALUES
  ('CCCCC[C@H](O)/C=C/[C@@H]1[C@H]2C/C(=C/CCCC(=O)O)O[C@H]2C[C@H]1O [Prostacyclin, reference compound]', 9.00),
  ('C=CCSSC=CC[S+]([O-])CC=C (centres unmarked) [(E,Z)-ajoene]', 5.64);

Values compiled from patent US4665088A.
